Readings of Plant response rating, Cupgrass, Woolly for the listed molecules
Tested on: woolly cupgrass (Eriochloa villosa)
Assay: Test C preemergence
Format: in vivo
Settings: Rate 125 g/ha; scale 0 to 100, 0 no effect, 100 complete control
Source text: […]
Could you respond with only the numeric value?

Task item: I would be grateful if you could share the reported Plant response rating, Cupgrass, Woolly for CCC(CC)c1ccn(C2CCN(c3ccc(F)c(C(F)(F)F)c3)C2=O)n1 (stereo not drawn) .
Reply: 100

Task item: Can you look up the measured Plant response rating, Cupgrass, Woolly of COc1cc(N2CCC(n3ccc(C(C)(C)C)n3)C2=O)ccc1Cl (stereo not drawn) for me?
Reply: 100

Task item: Need Plant response rating, Cupgrass, Woolly of Cc1ccc(N2CCC(n3ccc(C(C)(C)C)n3)C2=O)cc1OC(F)F (stereo not drawn) , thanks.
Reply: 90

Task item: What does the record list as Plant response rating, Cupgrass, Woolly for CC(C)(C)c1ccn(C2CCN(c3cccc(SC(F)(F)F)c3)C2=O)n1 (stereo not drawn) ?
Reply: 20

Task item: Give its Plant response rating, Cupgrass, Woolly value. Item: CCC(CC)c1ccn(C2CCN(c3cccc(OC(C)C)c3)C2=O)n1 (stereo not drawn)
Reply: 90

Task item: Plant response rating, Cupgrass, Woolly lookup needed for CCC(C)c1ccn(C2CCN(c3cccc(OC(C)C)c3)C2=O)n1 (stereo not drawn) , thanks.
Reply: 90

Task item: Quick one: Plant response rating, Cupgrass, Woolly of CC(C)(C)c1ccn(C2CCN(c3cccc([S+]([O-])C(F)(F)F)c3)C2=O)n1 (stereo not drawn) ?
Reply: 20

Task item: Recorded Plant response rating, Cupgrass, Woolly of CC(C)(C)c1ccn(C2OCN(c3cccc(OC(F)F)c3)C2=O)n1 (stereo not drawn) , please.
Reply: 100

Task item: Need Plant response rating, Cupgrass, Woolly of Cc1ccc(N2CCC(n3ccc(C(C)(C)C)n3)C2=O)cc1OCCCl (stereo not drawn) , thanks.
Reply: 90
